- Tested on: DRAK2
- Construct: gene STK17B
- Condition details: concentration: 1 μM, replicates: in singlicate; n = 1;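 also: KINOMEscan kinase panel screen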
Labelling field: enter TRUE if recorded %Inh is less than 6%. Enter FALSE if it equals or exceeds that cut-off.

Below, 5 compounds whose answers are already recorded.
| Cpd smiles | Target under test | Classification |
| --- | --- | --- |
| Cn1cc(-c2ccc3c(c2)CCN3C(=O)Cc2cccc(F)c2)c2c(N)ncnc21 | DRAK2 | TRUE |
| COc1cc2c(cc1OCCN1CCNCC1)ncc1c3ccc(C#N)cc3[nH]c21 | DRAK2 | FALSE |
| O=C(O)C(F)(F)F.O=C(O)C(F)(F)F.O=c1[nH]ccc2nc(N[C@@H]3CCCNC3)nc(Nc3ccc(S(=O)(=O)N4CCOCC4)cc3)c12 | DRAK2 | FALSE |
| CN(C)Cc1ccc(-c2ccc3c(Nc4ccc(Oc5ccccn5)cc4)ccnc3c2)o1 | DRAK2 | TRUE |
| c1ccc(-c2n[nH]cc2Nc2ccnc3ccccc23)nc1 | DRAK2 | TRUE |

Consider the compound Cn1cc(-c2[nH]c3cc(NC(=O)[C@H](N)C4CCCCC4)cc4c3c2C=NNC4=O)cn1 . Is its %Inh strictly less than 6%? FALSE

Consider the compound Clc1ccc(-c2nn3ncccc3c2-c2ccnc(Nc3ccc4c(c3)OCCO4)n2)cc1 . Is its %Inh strictly less than 6%? TRUE

----------
In this section we review reported %Inh values for a set of molecules.
- Tested on: PDPK1
- Condition details: concentration: 1 μM, replicates: in singlicate; n = 1
Unit % implied. Number only.

As a guide, the following entries are already answered.
| Molecule | Target under test | %Inh, % |
| --- | --- | --- |
| COc1cc(Nc2nccc(N3CCC(NC(=O)c4cc5ccccc5s4)C3)n2)cc(OC)c1OC (stereo not drawn) | PDPK1 | 50 |
| COc1ccc(Nc2nccc(N3CCC(NC(=O)Nc4cccc(OC)c4)C3)n2)cc1 (stereo not drawn) | PDPK1 | 15 |
| c1ccc(-c2n[nH]cc2Nc2ccnc3ccccc23)nc1 | PDPK1 | 0 |
| COc1cccc(-c2ccc3c(NC(=O)C4CC4)n[nH]c3n2)c1 | PDPK1 | 0 |
| Cl.Cl.NCC(NC(=O)c1cc(-c2ccccc2)c(-c2ccnc3[nH]ccc23)s1)c1ccccc1 (stereo not drawn) | PDPK1 | 20 |

Retrieve %Inh measured for C[C@@H](Oc1cc(-n2cnc3cc(-c4ccnc(NCCS(C)(=O)=O)c4)ccc32)sc1C(N)=O)c1ccccc1Cl and print it. 28

Retrieve %Inh measured for Cc1occc1-c1ncc(OC[C@@H](N)Cc2c[nH]c3ccccc23)cc1-c1ccc2[nH]nc(C)c2c1.O=C(O)C(F)(F)F and print it. 0

Retrieve %Inh measured for COc1cccc(C(=O)Nc2cccc(Oc3ccc4nc(NC(=O)C5CC5)cn4n3)c2)c1 and print it. 0

Retrieve %Inh measured for Nc1ncc(-c2ccc3nccc(-c4ccncc4)c3c2)cc1S(=O)(=O)N1CCOCC1 and print it. 0

----------
- System: PIK4CB
- Construct: gene PI4KB
- Condition details: concentration: 1 μM, replicates: in singlicate; n = 1
In this section we review reported %Inh values for a set of molecules.
Returns: string containing the numeric result and its unit.

Retrieve %Inh measured for COc1cc(Nc2nccc(N3CCC(NC(=O)Nc4cccc(C(C)=O)c4)C3)n2)cc(OC)c1OC (centres unmarked) and print it. 78%

Retrieve %Inh measured for Cc1ccc(F)c(C(=O)Nc2cccc(-c3nn4ccccc4c3-c3ccnc(Nc4cccc(F)c4)n3)c2)c1F and print it. 0%

Retrieve %Inh measured for Cl.Cl.NCC(C(=O)Nc1cc(Br)c(-c2ccnc3[nH]ccc23)s1)c1ccccc1 (centres unmarked) and print it. 9%

Retrieve %Inh measured for C[C@@H]1CC[C@@H](C(=O)Nc2ccccc2)CN1c1cc(-c2ccc3c(N)n[nH]c3c2)nc(N)n1 and print it. 0%

Retrieve %Inh measured for CCS(=O)(=O)c1ccc(OC)c(Nc2nccc(-c3c(-c4cccc(NC(=O)c5c(F)cccc5F)c4)nn4ncccc34)n2)c1 and print it. 7%

Retrieve %Inh measured for O=C(Nc1n[nH]c2nc(-c3ccc(O)cc3)ccc12)C1CC1 and print it. 20%

Retrieve %Inh measured for CC(=O)N1CCN(c2ccc(Nc3nccc(-c4sc(C(C)C)nc4-c4cccc(NS(=O)(=O)c5cccc(Cl)c5)c4)n3)cn2)CC1 and print it. 0%

Retrieve %Inh measured for CC(=O)Nc1nc2cnc(Nc3cc(NC(=O)c4cccc(C5(C#N)CC5)c4Cl)ccc3C)nc2s1 and print it. 0%

Retrieve %Inh measured for Cc1cccc(NC(=O)Nc2ccc(Oc3ncnc4ccn(C)c34)cc2)c1 and print it. 0%

Retrieve %Inh measured for Cn1cc(-c2ccc3c(c2)CCN3C(=O)Cc2cccc(Cl)c2)c2c(N)ncnc21 and print it. 0%

----------
- System: PIM3
- Condition details: concentration: 1 μM, replicates: in singlicate; n = 1
In this section we review reported %Inh values for a set of molecules.
Unit % implied. Number only.

| Cpd smiles | %Inh [%] |
| --- | --- |
| C[C@@H]1CC[C@@H](C(=O)Nc2ccccc2)CN1c1cc(-c2ccc3c(N)n[nH]c3c2)nc(N)n1 | 4 |
| COc1cc(Nc2nccc(-c3c(-c4cccc(NC(=O)c5c(F)cccc5F)c4)nn4ccccc34)n2)cc(OC)c1OC | 5 |

Retrieve %Inh measured for COc1ccc(-c2coc3ccc(-c4nnc(SCc5ccc(OC)c(C(F)(F)F)c5)o4)cc23)cc1 and print it. 4

Retrieve %Inh measured for C[C@@H](Oc1cc(-n2cnc3cc(-c4ccnc(NCCS(C)(=O)=O)c4)ccc32)sc1C(N)=O)c1ccccc1Cl and print it. 27

Retrieve %Inh measured for CN(C)S(=O)(=O)c1cc(-c2ccc3nccc(-c4cccc(S(N)(=O)=O)c4)c3c2)cnc1N and print it. 12

----------
- System: MET
- Condition details: concentration: 1 μM, replicates: in singlicate; n = 1
Quantity: %Inh (%)
Unit % implied. Number only.

Retrieve %Inh measured for O=C(Nc1n[nH]c2nc(-c3ccc(O)cc3)ccc12)C1CC1 [SB-710363] and print it. 0

Retrieve %Inh measured for Fc1ccc(-c2ncn(C3CCNCC3)c2-c2ccnc(Oc3ccc(-c4ccccc4)cc3)n2)cc1 [SB-245391] and print it. 50

Retrieve %Inh measured for CN(C)S(=O)(=O)c1cc(-c2ccc3nccc(-c4cccc(S(N)(=O)=O)c4)c3c2)cnc1N [GSK1669921] and print it. 0

Retrieve %Inh measured for Cl.Cl.NCC(C(=O)Nc1cc(Br)c(-c2ccnc3[nH]ccc23)s1)c1ccccc1 (stereo not drawn) [GSK1269851] and print it. 0

Retrieve %Inh measured for O=C(NC1CCN(c2ccnc(Nc3ccc(F)cc3)n2)C1)c1cc2ccccc2s1 (stereo not drawn) [GSK1379716] and print it. 0

Retrieve %Inh measured for O=C(Nc1cccc(-c2nn3ccccc3c2-c2ccnc(Nc3cccc(C(F)(F)F)c3)n2)c1)c1c(F)cccc1F [GSK292658] and print it. 0

Retrieve %Inh measured for O=C(O)C(F)(F)F.O=C(O)C(F)(F)F.O=c1[nH]ccc2nc(N[C@@H]3CCCNC3)nc(Nc3ccc(S(=O)(=O)N4CCOCC4)cc3)c12 [GSK2177277] and print it. 90.2

Retrieve %Inh measured for CN(C)Cc1ccc(-c2ccc3c(Nc4ccc(Oc5ccccn5)cc4)ccnc3c2)o1 [GW567148] and print it. 12

----------
- Tested on: ARK5
- Construct: gene NUAK1
- Condition details: concentration: 1 μM, replicates: in singlicate; n = 1
Respond with Yes for %Inh values of 1% and above, No for values below.

Below, 8 compounds whose answers are already recorded.
| Compound | Classification |
| --- | --- |
| Cl.c1ccc(-c2ccc3c(Nc4ccc5[nH]ccc5c4)ccnc3c2)nc1 [GW440138] | Yes |
| CC(=O)Nc1nc2cnc(Nc3cc(NC(=O)c4cccc(C5(C#N)CC5)c4Cl)ccc3C)nc2s1 | Yes |
| Clc1ccc(-c2nn3ncccc3c2-c2ccnc(Nc3ccc4c(c3)OCCO4)n2)cc1 [GW829116] | No |
| CN1CCN(CCCNc2nccc(-c3c(-c4ccc(F)cc4)nn4cc(C(F)(F)F)ccc34)n2)CC1 [GW621581] | Yes |
| COCCOCCOc1cc2ncc3c4ccc(C#N)cc4[nH]c3c2cc1OC | Yes |
| CNC(=O)c1ccccc1Nc1nc(Nc2ccc(N3CCOCC3)cc2)ncc1Cl.Cl [GSK1576028] | Yes |
| COc1cc(Nc2nccc(-c3c(-c4cccc(NC(=O)c5c(F)cccc5F)c4)nn4ccccc34)n2)cc(OC)c1OC [GSK323521] | Yes |
| O=C(Nc1cccc(Oc2ccc3nc(NC(=O)C4CC4)cn3n2)c1)c1ccccc1C(F)(F)F | No |

Form field: %Inh at least 1%? Entry: Cc1ccc(C(=O)Nc2ccc(Nc3ccnc4cc(-c5nccs5)ccc34)cc2O)cc1.Cl [GW494702] Yes

Form field: %Inh at least 1%? Entry: Nc1n[nH]c2cnc(-c3ccccc3)cc12 [SB-642124] No

Form field: %Inh at least 1%? Entry: Cc1ccc(C)c(NC(=O)NC2CCN(c3ccnc(Nc4ccc(F)cc4)n3)C2)c1 (centres unmarked) [GSK1379720] No

Form field: %Inh at least 1%? Entry: COc1ccc(-c2coc3ccc(-c4nnc(SCc5ccc(OC)c(C(F)(F)F)c5)o4)cc23)cc1 No

Form field: %Inh at least 1%? Entry: Cc1occc1-c1ncc(OC[C@@H](N)Cc2c[nH]c3ccccc23)cc1-c1ccc2[nH]nc(C)c2c1.O=C(O)C(F)(F)F [GSK682037] No

Form field: %Inh at least 1%? Entry: Cl.NC(=O)c1cccc(Nc2nccc(Nc3ccc(Oc4c(Cl)cccc4Cl)c(Cl)c3)n2)c1 [GW659009] No

Form field: %Inh at least 1%? Entry: COC(=O)Nc1nc2cc(Oc3ccc(NC(=O)Nc4cc(C(F)(F)F)ccc4F)cn3)ccc2[nH]1.Cl.Cl [GW681170] No

Form field: %Inh at least 1%? Entry: Cl.Cl.NCC(C(=O)Nc1cc(Br)c(-c2ccnc3[nH]ccc23)s1)c1ccccc1 (centres unmarked) [GSK1269851] No
